Test: Half-life in Wistar Han rat
Format: ADME
Conditions: in vivo
Binary label based on half-life with cut-off 1 h: below gives 1 (yes), not below gives 0 (no).

Answered cases to consult:
[ask] Lab note: confirm whether the reported half-life for this compound is below 1 h, equality not counting. compound: CCn1c(-c2cnc(C)nc2)nc2c(N[C@H]3CCN(C(=O)C4CCOC4)C3)ncnc21 (some centres undefined)
[reply] 1 (yes)

[ask] Lab note: confirm whether the reported half-life for this compound is below 1 h, equality not counting. compound: CCn1c(-c2ccc(C(F)(F)F)nc2)nc2c(O[C@H]3CCN(C(=O)C4CCOC4)C3)ncnc21 (some centres undefined)
[reply] 0 (no)

[ask] Lab note: confirm whether the reported half-life for this compound is below 1 h, equality not counting. compound: `CCn1c(-c2cnc(C)nc2)nc2c(N[C@H]3CCN(C(=O)C4CC4)C3)ncnc21`
[reply] 0 (no)

[ask] Lab note: confirm whether the reported half-life for this compound is below 1 h, equality not counting. compound: `CCC(=O)N1CC[C@H](Nc2ncnc3c2nc(-c2cnc(C)nc2)n3CC)C1`
[reply] 0 (no)

[ask] Lab note: confirm whether the reported half-life for this compound is below 1 h, equality not counting. compound: `CCn1c(-c2ccc(C(F)(F)F)nc2)nc2c(O[C@H]3CCN(C(=O)C4CC4)C3)ncnc21`
[reply] 1 (yes)

Next:
[ask] Lab note: confirm whether the reported half-life for this compound is below 1 h, equality not counting. compound: `CCC(=O)N1CC[C@H](Oc2ncnc3c2nc(-c2cnc(C)nc2)n3CC)C1`
[reply] 0 (no)

[ask] Lab note: confirm whether the reported half-life for this compound is below 1 h, equality not counting. compound: `CCn1c(-c2cnc(C)nc2)nc2c(N[C@H]3CCN(C(=O)C4CCOCC4)C3)ncnc21`
[reply] 0 (no)

[ask] Lab note: confirm whether the reported half-life for this compound is below 1 h, equality not counting. compound: CCn1c(-c2cnc(C)nc2)nc2c(O[C@H]3CCN(C(=O)C4CCOC4)C3)ncnc21 (some centres undefined)
[reply] 0 (no)

[ask] Lab note: confirm whether the reported half-life for this compound is below 1 h, equality not counting. compound: `CCn1c(-c2ccc(C(F)(F)F)nc2)nc2c(O[C@H]3CCN(C(=O)N4CC(OC)C4)C3)ncnc21`
[reply] 0 (no)

* * *

Experiment: Inhibition of adenosine transporter in human HeLa cells assessed as reduction in [3H]adenosine uptake preincubated for 30 mins followed by [3H]adenosine addition and measured after 60 mins
Type: cell-based
reported-endpoint: IC50 (µM)
Numbers only, in µM.

[ask] Fill blank: measured IC50 of the compound `CCn1c(-c2cnc(C)nc2)nc2c(N[C@H]3CCN(C(=O)N4CC(OC)C4)C3)ncnc21` is ____.
[reply] 4.7

[ask] Fill blank: measured IC50 of the compound `CCn1c(-c2cnc(C)nc2)nc2c(O[C@H]3CCN(C(=O)C4CC(F)(F)C4)C3)ncnc21` is ____.
[reply] 9.9

[ask] Fill blank: measured IC50 of the compound `CCn1c(-c2cnc(C)nc2)nc2c(N[C@H]3CCN(C(=O)C4CC4)C3)ncnc21` is ____.
[reply] 5

Required: IC50, one value per compound below.
1. CCCn1c(-c2cnn(CC)c2C)nc2c(N[C@H]3CCN(C(=O)CC)C3)ncnc21
2. CCn1c(-c2cnc(C)nc2)nc2c(O[C@H]3CCN(C(=O)C4CCC4)C3)ncnc21
3. CCC(=O)N1CC[C@H](Nc2ncnc3c2nc(-c2cnc(C(C)(C)C)s2)n3C)C1
4. CCn1c(-c2cnc(C)nc2)nc2c(N[C@H]3CCN(C(=O)C4CCC4)C3)ncnc21

[reply]
3.7
7.7
1.6
1.2

Required: IC50, one value per compound below.
1. CCC(=O)N1CC[C@H](Nc2ncnc3c2nc(-c2cnc(OC)c(C)c2)n3C)C1
2. CCC(=O)N1CC[C@H](Nc2ncnc3c2nc(-c2cnn(CC)c2C)n3CC(F)F)C1

[reply]
1: 0.3; 2: 3.1

Required: IC50, one value per compound below.
1. CCn1c(-c2cnc(C)nc2)nc2c(N[C@H]3CCN(C(=O)C4CC(F)(F)C4)C3)ncnc21
2. CCn1c(-c2cnc(C)nc2)nc2c(O[C@H]3CCN(C(=O)N4CC(OC)C4)C3)ncnc21
3. CCC(=O)N1CC[C@H](Nc2ncnc3c2nc(-c2cnn(CC)c2C)n3CC)C1
4. CCn1c(-c2cnc(C)nc2)nc2c(N[C@H]3CCN(C(=O)[C@H]4C[C@@H](OC)C4)C3)ncnc21
5. CCn1c(-c2ccc(C(F)(F)F)nc2)nc2c(O[C@H]3CCN(C(=O)[C@H]4C[C@@H](OC)C4)C3)ncnc21

[reply]
1. 3.8
2. 8.7
3. 2.3
4. 6.1
5. 4.1
